These data points were gathered from PubChem BioAssay (NCI).

tested on: SK-MEL-28 melanoma; test: NCI tumour cell line growth inhibition, 48 h
Would you kindly list TGI for each of these molecules?
Please reply with the bare figure in µM and do not write the unit itself.

Requested field: TGI. Item: CC1(C)O[C@@H](CP(c2ccccc2)c2ccccc2)[C@H](CP(c2ccccc2)c2ccccc2)O1
28

Okay, and CCN(CC)c1ccc2nc3c4ccccc4c(=NC(=O)c4ccccc4-c4c5ccc(N(CC)CC)cc5[o+]c5cc(N(CC)CC)ccc45)cc-3oc2c1 ?
12.4

Okay, and O=C(NO)c1cnc(N2CCN(S(=O)(=O)c3ccc4ccccc4c3)CC2)nc1 ?
1.15

Okay, and O=C(Nc1cc(Cl)c(Cl)cc1Cl)C(=O)C(C(=O)c1ccc2ccccc2c1)C1OC(=O)c2ccccc21 (stereo not given) ?
22.1

Okay, and CC1(C)CC2CC(C)(CN2c2ncnc3ccc(Br)cc23)C1 (stereo not given) ?
28

Okay, and COc1cnc2c(c1)C(=O)c1c-2n(CCCN2CCN(CCO)CC2)c(=O)c2cc([N+](=O)[O-])ccc12 ?
4.16
